Please go through the items and note down their Ki.
assay: Inhibition of [3H](+)-pentazocine binding to sigma receptor of guinea pig brain homogenates
Express your answer in nM, writing the number without its unit.

*Q* Need Ki, item NC1(c2cc3ccccc3s2)CCCC1 [1-Benzo[b]thiophen-2-yl-cyclopentylamine]
*A* 1730

*Q* Item c1ccc2sc(C3(N4CCCCCC4)CCCCC3)cc2c1 has what recorded Ki?
*A* 674

*Q* Param item = c1ccc2sc(C3(N4CCCC4)CCCCC3)cc2c1 ; retrieve measured Ki.
*A* 168

*Q* Query (molecule): NC1(c2cc3ccccc3s2)CCCCC1 [1-Benzo[b]thiophen-2-yl-cyclohexylamine] ; field requested: Ki
*A* 3170

*Q* Please report the recorded Ki for c1ccc2sc(C3(N4CCCC4)CCCC3)cc2c1 .
*A* 125

*Q* Which measured Ki value corresponds to c1ccc2sc(C3(N4CCCCC4)CCCCCC3)cc2c1 ?
*A* 2230

*Q* Can you look up the measured Ki of c1ccc2sc(C3(N4CCCCCC4)CCCCCC3)cc2c1 for me?
*A* 2710

*Q* If you can, please state the reported Ki value of NC1(c2cc3ccccc3s2)CCCCCC1 [1-Benzo[b]thiophen-2-yl-cycloheptylamine] .
*A* 9170

*Q* I'd like to know its Ki. The molecule in question is c1ccc2sc(C3(N4CCCCCC4)CCCC3)cc2c1
*A* 2890

*Q* Fill blank: measured Ki of the molecule c1ccc2sc(C3(N4CCCCC4)CCCC3)cc2c1 is ____.
*A* 1100

*Q* Form field: reported Ki of c1ccc2sc(C3(N4CCCC4)CCCCCC3)cc2c1
*A* 720
